- assay.notes: cells
- recorded.conditions: Homo sapiens, NIH3T3
pIC50: −log10 of the molar value.
property: pIC50

* Cc1cn(-c2cc(NC(=O)c3ccc(C)c(Nc4nccc(-c5cccnc5)n4)c3)cc(C(F)(F)F)c2)cn1 [NILOTINIB] | 6.43

* * *

- assay.notes: clinical
- recorded.conditions: human, in vivo, po, 50 mg
property: Cmax at 192 h (ng/mL)

- CO[C@@H]1[C@H](N(C)C(=O)c2ccccc2)C[C@H]2O[C@]1(C)n1c3ccccc3c3c4c(c5c6ccccc6n2c5c31)C(=O)NC4: 1600

* * *

- assayed.target: Adenosine receptor A3 (Homo sapiens)
- Sequence (P0DMS8 whole entry): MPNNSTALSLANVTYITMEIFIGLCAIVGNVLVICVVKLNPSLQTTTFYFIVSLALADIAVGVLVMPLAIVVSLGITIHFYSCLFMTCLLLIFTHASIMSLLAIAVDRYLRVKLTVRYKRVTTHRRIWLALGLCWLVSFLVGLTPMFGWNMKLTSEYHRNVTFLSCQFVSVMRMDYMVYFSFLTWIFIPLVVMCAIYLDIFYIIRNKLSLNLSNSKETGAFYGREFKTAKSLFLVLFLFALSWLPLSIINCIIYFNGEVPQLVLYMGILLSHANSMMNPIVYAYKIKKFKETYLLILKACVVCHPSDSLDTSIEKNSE
pIC50: −log10 of the molar value.
property: pIC50

• COc1cc(Nc2ncc(F)c(Nc3ccc4c(n3)NC(=O)C(C)(C)O4)n2)cc(OC)c1OC = 7.74

* * *

- assay.notes: clinical
- recorded.conditions: human, plasma, 5 mg
property: Cmax

- CNC(=O)c1ccccc1Sc1ccc2c(/C=C/c3ccccn3)n[nH]c2c1: 27.8 ng/mL

* * *

- assay.notes: clinical
- recorded.conditions: human, 300 mg
property: Cmax (ng/mL)

• Cc1cnc(Nc2ccc(OCCN3CCCC3)cc2)nc1Nc1cccc(S(=O)(=O)NC(C)(C)C)c1 [FEDRATINIB] = 971
